Reference for the values: ChEMBL document CHEMBL1201861

tested on: SJSA-1; experiment: cells; format: functional, cell-based, Homo sapiens; settings: Homo sapiens, SJSA-1;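 also: growth inhibition of human SJSA-1 cells, read out through a cell viability measurement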
Description: SANGER: Inhibition of human SJSA-1 cell growth in a cell viability assay.
pIC50: −log10 of the molar value.
Please respond with reported pIC50 for every item in the list.

Query (molecule): COc1cc2ncn(-c3cc(OCc4ccccc4S(C)(=O)=O)c(C#N)s3)c2cc1OC [GSK-319347A] ; field requested: pIC50 < 5.30

And then `Oc1ccc2ccccc2c1SSc1c(O)ccc2ccccc12` , what is it? < 4.49

Also need `CCN(CC)CCCCNc1ncc2cc(-c3cc(OC)cc(OC)c3)c(NC(=O)NC(C)(C)C)nc2n1` , thanks. < 5.70

Can you check `Cc1cn(-c2cc(NC(=O)c3ccc(C)c(Nc4nccc(-c5cccnc5)n4)c3)cc(C(F)(F)F)c2)cn1` next? < 5.70

Thanks! And `C#Cc1cccc(Nc2ncnc3cc(OCCOC)c(OCCOC)cc23)c1` ? < 5.70

###

system: AN3-CA; assay: cells; type: functional, cell-based, Homo sapiens; settings: Homo sapiens, AN3-CA;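 also: growth inhibition of human AN3-CA cells measured by a cell viability assay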
Description: SANGER: Inhibition of human AN3-CA cell growth in a cell viability assay.
measured_attribute: IC50

Suppose we examine the molecule CN(C)C(=N)NC(=N)N [METFORMIN] ; what IC50 value has been reported? > 20000 µM

Also `COc1cc2c(Nc3ccc(NC(=O)c4ccccc4)cc3)ncnc2cc1OCCCN1CCOCC1` , if possible. > 4 µM

And what about the molecule CC1(C)CNc2cc(NC(=O)c3cccnc3NCc3ccncc3)ccc21 [MOTESANIB] ? > 2 µM

###

test system: NCI-H1436; test: cells; format: functional, cell-based, Homo sapiens; settings: Homo sapiens, NCI-H1436;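 also: growth suppression of human NCI-H1436 cells, determined with a cell viability readout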
Description: SANGER: Inhibition of human NCI-H1436 cell growth in a cell viability assay.
Where a name gives a salt, the structure may show the parent alone.
Answer each item with its documented pIC50.
In plain terms, pIC50 is the concentration in mol/L turned into minus its base-10 logarithm.

Form field: reported pIC50 of `N#Cc1c(O)c2c(-c3ccc(-c4ccccc4O)cc3)csc2[nH]c1=O` 6.23

COC1=CC(c2cc3ccccc3[nH]2)=N/C1=C\c1[nH]c(C)cc1C [OBATOCLAX MESYLATE] ? 5.90

###

Could you please report measured IC50 for the items listed next?
test system: HEC-1; test: cells; format: functional, cell-based, Homo sapiens; settings: Homo sapiens, HEC-1;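 also: growth inhibition of the cell line, read out with a cell viability assay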
Description: SANGER: Inhibition of human HEC-1 cell growth in a cell viability assay.

IC50 lookup needed for `CCN(CC)CCCCNc1ncc2cc(-c3cc(OC)cc(OC)c3)c(NC(=O)NC(C)(C)C)nc2n1` , thanks. > 2 µM

Okay, and `CS(=O)(=O)c1ccc(C(=O)Nc2ccc(Cl)c(-c3ccccn3)c2)c(Cl)c1` ? > 10 µM

Queued: `C=C(c1ccc(C(=O)O)cc1)c1cc2c(cc1C)C(C)(C)CCC2(C)C` > 8 µM

What about this compound? `CCC/C=C/C=C/C(=O)O[C@H]1/C(=C/C(=O)OC)C[C@H]2C[C@H]([C@@H](C)O)OC(=O)C[C@H](O)C[C@@H]3C[C@H](OC(C)=O)C(C)(C)[C@](O)(C[C@@H]4C/C(=C/C(=O)OC)C[C@H](/C=C/C(C)(C)[C@]1(O)O2)O4)O3` > 0.008 µM

Can you check `Oc1ccc2ccccc2c1SSc1c(O)ccc2ccccc12` next? > 32 µM

Field entry: `COc1cc2c(Nc3ccc(NC(=O)c4ccccc4)cc3)ncnc2cc1OCCCN1CCOCC1` > 4 µM

Then this compound: `CO[C@H]1C[C@@H]2CC[C@@H](C)[C@@](O)(O2)C(=O)C(=O)N2CCCC[C@H]2C(=O)O[C@H]([C@H](C)C[C@@H]2CC[C@@H](OC(=O)C(C)(CO)CO)[C@H](OC)C2)CC(=O)[C@H](C)/C=C(\C)[C@@H](O)[C@@H](OC)C(=O)[C@H](C)C[C@H](C)/C=C/C=C/C=C/1C` > 0.2 µM

###

system: ASPC1; assay: cells; assay type: functional, cell-based, Homo sapiens; details: Homo sapiens, ASPC1
Description: SANGER: Inhibition of human AsPC-1 cell growth in a cell viability assay.
pIC50: −log10 of the molar value.
What pIC50 was measured for each of the following?

pIC50 for Cc1cn(-c2cc(NC(=O)c3ccc(C)c(Nc4nccc(-c5cccnc5)n4)c3)cc(C(F)(F)F)c2)cn1 [NILOTINIB] ? < 5.70

Same lookup for CS(=O)(=O)c1ccc(C(=O)Nc2ccc(Cl)c(-c3ccccn3)c2)c(Cl)c1 [VISMODEGIB] , please. < 5.00

Next compound: `COc1cc2c(Nc3ccc(NC(=O)c4ccccc4)cc3)ncnc2cc1OCCCN1CCOCC1` < 5.40

###

Exercise: for every item that follows, state its recorded IC50.
tested on: GB-1; experiment: cells; type: functional, cell-based, Homo sapiens; settings: Homo sapiens, GB-1;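 also: growth of GB-1 cells judged by a viability assay, IC50 marks the concentration inhibiting growth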
Description: SANGER: Inhibition of human GB-1 cell growth in a cell viability assay.
Counter-ions that a name gives are not always drawn.

Dear colleague, I am looking for the recorded IC50 of the following compound: `CS(=O)(=O)c1ccc(C(=O)Nc2ccc(Cl)c(-c3ccccn3)c2)c(Cl)c1` > 10000 nM

What about Nc1cccc2c1CN(C1CCC(=O)NC1=O)C2=O (stereo not drawn) [LENALIDOMIDE] ? > 5000 nM

Queued: COC1=CC(c2cc3ccccc3[nH]2)=N/C1=C\c1[nH]c(C)cc1C [OBATOCLAX MESYLATE] 164 nM

###

I'd appreciate it if you could supply IC50 values for the items below.
system: TE-10; assay: cells; format: functional, cell-based, Homo sapiens; details: Homo sapiens, TE-10
Description: SANGER: Inhibition of human TE-10 cell growth in a cell viability assay.

For `Cn1cnc2c(F)c(Nc3ccc(Br)cc3Cl)c(C(=O)NOCCO)cc21` , what is its reported IC50? > 4 µM

Repeat for the following compound: `CCN(CC)CCCCNc1ncc2cc(-c3cc(OC)cc(OC)c3)c(NC(=O)NC(C)(C)C)nc2n1` > 2 µM

Try this compound too: `CC1(C)CNc2cc(NC(=O)c3cccnc3NCc3ccncc3)ccc21` > 2 µM

And then `Oc1ccc2ccccc2c1SSc1c(O)ccc2ccccc12` , what is it? > 32 µM

###

system: SK-LMS-1; experiment: cells; format: functional, cell-based, Homo sapiens; settings: Homo sapiens, SK-LMS-1
Description: SANGER: Inhibition of human SK-LMS-1 cell growth in a cell viability assay.
pIC50: −log10 of the molar value.
measured_attribute: pIC50

Quick one: pIC50 of C=C(c1ccc(C(=O)O)cc1)c1cc2c(cc1C)C(C)(C)CCC2(C)C [BEXAROTENE] ? 5.12

Continue with Nc1cccc2c1CN(C1CCC(=O)NC1=O)C2=O (stereo not drawn) [LENALIDOMIDE] < 5.30

Repeat for the following compound: COc1cc2ncn(-c3cc(OCc4ccccc4S(C)(=O)=O)c(C#N)s3)c2cc1OC [GSK-319347A] < 5.30

###

tested on: SK-LU-1; assay: cells; format: functional, cell-based, Homo sapiens; details: Homo sapiens, SK-LU-1;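 also: cell viability assay measuring growth inhibition of human SK-LU-1 cells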
Description: SANGER: Inhibition of human SK-LU-1 cell growth in a cell viability assay.
pIC50: −log10 of the molar value.
measured_attribute: pIC50

If you can, please state the reported pIC50 value of Nc1cccc2c1CN(C1CCC(=O)NC1=O)C2=O (stereo not drawn) [LENALIDOMIDE] . < 5.30

Please answer likewise for CC(C)CCN1c2nc(Nc3cc(F)c(O)c(F)c3)ncc2N(C)C(=O)C1C (stereo not drawn) < 5.30

Now give it for CCN(CC)CCCCNc1ncc2cc(-c3cc(OC)cc(OC)c3)c(NC(=O)NC(C)(C)C)nc2n1 [PD-173074] too. < 5.70

###

Give IC50 for every item shown.
tested on: EW-3; assay: cells; assay type: functional, cell-based, Homo sapiens; settings: Homo sapiens, EW-3;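 also: cell viability assay read-out, IC50 reflects inhibition of growth of the EW-3 cells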
Description: SANGER: Inhibition of human EW-3 cell growth in a cell viability assay.

GET /values?readout=IC50&item= CC[C@H](CO)Nc1nc(NCc2ccccc2)c2ncn(C(C)C)c2n1 [SELICICLIB] > 16 µM

Repeat for the following compound: `COc1cc(-c2nn([C@H]3CC[C@H](N4CCN(C(C)=O)CC4)CC3)c3ncnc(N)c23)ccc1NC(=O)c1cc2ccccc2n1C` > 5.12 µM

Then this compound: CCC/C=C/C=C/C(=O)O[C@H]1/C(=C/C(=O)OC)C[C@H]2C[C@H]([C@@H](C)O)OC(=O)C[C@H](O)C[C@@H]3C[C@H](OC(C)=O)C(C)(C)[C@](O)(C[C@@H]4C/C(=C/C(=O)OC)C[C@H](/C=C/C(C)(C)[C@]1(O)O2)O4)O3 [BRYOSTATIN 1] > 0.008 µM

Repeat with COc1cc2ncn(-c3cc(OCc4ccccc4S(C)(=O)=O)c(C#N)s3)c2cc1OC [GSK-319347A] > 5 µM

###

system: KOSC-2; assay: cells; format: functional, cell-based, Homo sapiens; settings: Homo sapiens, KOSC-2;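 also: growth inhibition of KOSC-2 cells, read out by a cell viability assay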
Description: SANGER: Inhibition of human KOSC-2 cell growth in a cell viability assay.
measured_attribute: IC50

// fetch KOSC-2 IC50 for `Cc1cc([N+](=O)[O-])ccc1NS(=O)(=O)c1cc(Cl)ccc1Cl` > 32 µM

Ok, now `Cc1cn(-c2cc(NC(=O)c3ccc(C)c(Nc4nccc(-c5cccnc5)n4)c3)cc(C(F)(F)F)c2)cn1` > 2 µM

Same question, `Cn1cnc2c(F)c(Nc3ccc(Br)cc3Cl)c(C(=O)NOCCO)cc21` this time > 4 µM

###

test system: MFH-ino; assay: cells; assay type: functional, cell-based, Homo sapiens; settings: Homo sapiens, MFH-ino
Description: SANGER: Inhibition of human MFH-ino cell growth in a cell viability assay.
measured_attribute: IC50

Any idea what its IC50 is? The molecule is `CC[C@H](CO)Nc1nc(NCc2ccccc2)c2ncn(C(C)C)c2n1` > 16 µM

Next molecule: `Cc1ccc(-c2c(C(=O)CCl)n(CCCO)c3ncnc(N)c23)cc1` > 4 µM

Okay, and `COc1cc(N2CCN(C)CC2)ccc1Nc1ncc2c(n1)N(C)c1ccccc1C(=O)N2C` ? > 8 µM
